Data origin: a melting point compilation (Tetko et al.; mined from patent text by program, amines drawn as free bases though some values may be those of a salt)

assay endpoint: melting point

Study these solved cases before continuing.
compound | obs value
NC(=O)n1ccc(-c2ccc(Sc3ccc(F)cc3)cc2)n1 | 150 to 155 °C
CNC1=NS(=O)N=C1NCCCN(Cc1ccccc1)c1ccccn1 (stereo not given) | 122 to 123 °C
CCCC(NS(=O)(=O)NC(=O)OCc1ccccc1)C(=O)OC (stereo not given) | 76 to 78 °C

[in] Consider the compound shown here: `CC(C)=CCCOc1c(-c2ccc(S(C)(=O)=O)cc2)cnn(-c2cccc(Cl)c2)c1=O` What is its recorded melting point?
[out] 110 to 111 °C

[in] Entry `COc1ccc(Cn2nnc(-c3cccc(C(=O)Cl)c3)n2)cc1` has what melting point?
[out] 122 to 124 °C

[in] Quick one: melting point for `CCCCCCCCCCCCCCCCCC(=O)N1CCN(c2cc(N3CCCC3)nc(N3CCCC3)n2)CC1` ?
[out] 102 to 104 °C

[in] Please give the measured melting point for this compound: CC1(C)Oc2ccc([N+](=O)[O-])cc2C(n2ccccc2=O)C1(O)CNC(=O)C(F)(F)F (stereo not given)
[out] 158 °C

[in] Which value of melting point has been reported for `Oc1cc2ccc(Br)cc2cc1C12CC3CC(CC(C3)C1)C2` in the records?
[out] 215 to 216 °C

[in] Quick one: melting point for `CC(=O)n1c(=O)n(CCN2CCC(CC(=O)c3ccc(F)cc3)CC2)c2ccccc21` ?
[out] 149 °C

[in] Any idea what its melting point is? The compound is `Cc1ccc(P(c2ccc(C)cc2)c2cccc3c2-c2c(cccc2P(c2ccc(C)cc2)c2ccc(C)cc2)OCCCO3)cc1`
[out] 108 to 110 °C

====

assay endpoint: melting point

Reference set (3 entries):
compound | melting point
CNn1c(C)nn(C(=O)NC(C)(C)CCc2ccccc2)c1=O | 102 °C
NS(=O)(=O)Oc1ccccc1Cl | 62.5 to 63.5 °C
CCC(=O)N(C(=O)CC)c1c(OCc2ccccc2)cc(Br)cc1[N+](=O)[O-] | 90 to 92 °C

[in] If you can, please state the reported melting point value of `CNC(=O)COC(=O)N1CCN(CCc2ccc3ccccc3c2)CC1` .
[out] 133 to 135 °C

[in] What value of measured melting point is listed for `C#CCN1C(=O)COc2ccc(-n3c(OC)nc(C(F)(F)F)cc3=O)cc21` ?
[out] 218 to 220 °C

[in] Given `CC(=O)Nc1ccc2c(c1)SC1(CC1)C2=O` , state its recorded melting point.
[out] 195 to 196 °C

[in] Suppose we examine the compound `CC(=O)c1ccccc1NC(=O)Cc1ccccc1` ; what melting point value has been reported?
[out] 78 °C

====

Overview of recorded melting point for various compounds

compound | melting point
O=c1cc(-c2ccncc2)cc[nH]1 | 263 to 265 °C

Query compound follows.
[in] If you can, please state the reported melting point value of Cc1cc(C)nc(-n2ccnc2S(=O)Cc2ccccc2NC=O)c1 (centres undefined) .
[out] 160 to 162 °C

====

assay endpoint: melting point

[in] State the recorded melting point for this entry: `CCOC(=O)c1ccc(-c2ccc(-c3ccc(OC)cc3)c(-c3ccc4c(c3)C(C)(C)CCC4(C)C)c2)cc1`
[out] 112 to 115 °C

[in] // melting point lookup, key: `Nc1ccc(S(=O)(=O)CCO)cc1C(=O)O`
[out] 164 to 167 °C

[in] Item `COc1cccc2oc(-c3ccc(Cl)cc3)cc(=O)c12` has what recorded melting point?
[out] 171 to 172 °C

[in] Find the recorded melting point belonging to `FC(F)(F)c1ccc(I)c(I)c1` and report it.
[out] 62 to 64 °C

[in] May I ask what melting point has been recorded for `O=C(O)CCCCCCCCNS(=O)(=O)c1ccc(Cl)cc1` ?
[out] 121 to 123 °C

[in] Which melting point is reported for this compound? `COc1ccc(C2(O)CCNCC2)cc1`
[out] 120 to 122 °C

[in] Form field: reported melting point of COC(=O)C(C)Oc1c(C#N)cnn1-c1ccc(C(F)(F)F)cc1Cl (stereo unspecified)
[out] 82 to 85 °C

====

assay endpoint: melting point

Here are 3 compounds together with their reported answers.
compound | melting point
CNC(=O)CCC(=O)c1ccc(OCC(O)CNC(C)C)cc1 (stereo unspecified) | 175 to 178 °C
Cc1c(OCCCCSCCn2c([N+](=O)[O-])cnc2C)ccnc1CNc1cnc2ccccc2c1 | 154 to 158 °C
COc1ccc(-c2nc(-c3ccc4oc(=O)[nH]c4c3)cs2)cc1OC | 271 to 272 °C

[in] Reported melting point, compound `Cc1ccc(Oc2ccc(C=O)cc2)c(O)c1` : ____
[out] 46 to 48 °C

[in] So what's the measured melting point for this one? `CCCc1c(OCCCCCc2ccc(OC)c(OC)c2)ccc(C(C)=O)c1O`
[out] 72 to 75 °C

[in] So what's the measured melting point for this one? `COc1ccccc1CNc1cccnc1-c1ccccc1`
[out] 122 to 125 °C

====

Let's look at some compounds and their measured melting point.

compound | obs value
Cc1cccc(NC(=O)NCC(=O)N2[C@@H](c3ccccc3F)SC[C@H]2C(=O)OC(C)(C)C)c1 | 107 °C

[in] Reported melting point for `Nc1c2c(nc3ccccc13)-c1ccccc1SC2` : what is it?
[out] 211 to 212 °C

[in] Value lookup for melting point; key = `CONC(=O)C(Cl)=Cc1cc(-n2c(=O)cc(C(F)(F)F)n(C)c2=O)ccc1Cl`
[out] 136 to 141 °C

[in] Request the reported melting point associated with `CC(=O)c1ccc(OCCC2CCN(c3cc(Cl)nnc3Cl)CC2)cc1`
[out] 99 to 100 °C

[in] Reported melting point, compound CCCCCC(C)(C)NC(=O)c1nn(-c2ccc(F)cc2F)c2c1C1CCC2C1 (centres undefined) : ____
[out] 76 to 78 °C

====

# melting point per record follows

The examples below pair each entry with its known result.
compound | melting point
Cn1nc(C=O)cc1C(C)(C)CNC(=O)c1ccccc1 | 150 to 151 °C
CN(C)CCOc1ccc([C@H]2C[C@]3(C)C(=O)CC[C@H]3[C@@H]3CCc4c(ccc(O)c4Cl)[C@H]32)cc1 | 254 °C
O=C1CCC(c2c[nH]c3ccc(F)cc23)C1 (stereo unspecified) | 119 to 120 °C
CC(C)(C)OC(=O)N1CCC(CC(O)c2c3c(nn2-c2ccccc2)c(=O)[nH]c2ccccc23)CC1 (stereo unspecified) | 253 to 254 °C
Cc1cc(C)c(S(=O)(=O)N(C)C)cc1[N+](=O)[O-] | 113 °C

We next turn to a different compound, shown below.
[in] Please give the measured melting point for this compound: `CN(C)C1CCN(c2nc(N3CCOCC3)c3ncnc(NCc4ccccc4)c3n2)CC1`
[out] 148 to 150 °C

====

# key: entry, value: melting point

Here's what some known entries look like.
molecule | assay endpoint | obs value
O=C(O)CCC(Cc1ccccc1)(C(=O)C=Cc1ccc(Cl)cc1)c1ccccc1 (stereo not given) | melting point | 160 to 170 °C
CCCCc1cccc(-c2cn(C)cc(-c3ccccc3)c2=O)c1 | melting point | 87 to 89 °C
N#Cc1nc(Cl)sc1Cl | melting point | 56.5 to 57 °C

[in] Using the record for COC(=O)c1c(OCc2ccccc2)ccc2c1CC[C@@H](NC1CCC1)[C@@H]2O (relative stereo) , report its melting point.
[out] 117 to 119 °C

[in] What value of melting point has been reported for the following molecule? `Cc1ccccc1Cn1cccc1C(=O)CC(=O)C(=O)O`
[out] 176 to 178 °C

[in] Form field: reported melting point of `Cc1nc2c3c(c(C(=O)N4CCOCC4)cc2n1C)CCC1(Cc2ccccc2C1)N3`
[out] 284 to 285 °C

[in] Can you look up the measured melting point of `NS(=O)(=O)c1ccccc1S` for me?
[out] 113 to 140 °C

[in] Quick check: melting point of OCC1CCn2c(nc3ccccc32)S1 (stereo not given) ?
[out] 112 to 113 °C

[in] Item `NC(=O)C[C@H](NC(=O)CCc1ccc(OCc2ccccc2)cc1OCc1ccccc1)C(=O)N1CCN(Cc2ccccc2)CC1` has what recorded melting point?
[out] 112 to 114 °C

[in] Which melting point is reported for this molecule? `Cc1cccc2nc(-c3c(F)cccc3F)[nH]c12`
[out] 148 °C

[in] Bench note: what melting point did `CC(C)(C)c1ccc2nc(N3CCN(c4ncccc4C(F)(F)F)CC3)[nH]c2c1` show?
[out] 247 to 249 °C

[in] Look up melting point: `O=C1NCCCN1N=Cc1ccccc1`
[out] 190 °C

[in] Item `CCc1c([N+](=O)[O-])cc(C2CCNCC2)cc1[N+](=O)[O-]` has what recorded melting point?
[out] 85 to 86 °C
